Target: T1, human CD71 extracellular domain (human, UniProt P02786 89-760)
T1 construct: also called hCD71; human CD71-ECD
T1 sequence (P02786 89-760): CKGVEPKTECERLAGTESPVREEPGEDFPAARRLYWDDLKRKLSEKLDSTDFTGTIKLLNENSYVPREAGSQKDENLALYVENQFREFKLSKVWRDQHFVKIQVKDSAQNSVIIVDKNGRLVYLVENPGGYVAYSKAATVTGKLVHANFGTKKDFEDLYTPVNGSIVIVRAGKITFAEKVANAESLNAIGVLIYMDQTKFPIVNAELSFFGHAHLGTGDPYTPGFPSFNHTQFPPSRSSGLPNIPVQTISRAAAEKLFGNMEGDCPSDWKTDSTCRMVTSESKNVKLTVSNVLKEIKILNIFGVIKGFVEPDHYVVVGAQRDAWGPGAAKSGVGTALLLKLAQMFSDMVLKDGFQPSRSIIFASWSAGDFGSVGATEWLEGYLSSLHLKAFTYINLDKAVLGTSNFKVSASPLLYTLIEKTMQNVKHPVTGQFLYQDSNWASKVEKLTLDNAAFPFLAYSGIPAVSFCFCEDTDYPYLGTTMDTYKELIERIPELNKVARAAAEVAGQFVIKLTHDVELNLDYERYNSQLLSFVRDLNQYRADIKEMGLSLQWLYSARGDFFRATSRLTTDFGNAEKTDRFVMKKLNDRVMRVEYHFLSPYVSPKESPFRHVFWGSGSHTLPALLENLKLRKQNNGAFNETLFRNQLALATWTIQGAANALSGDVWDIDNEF
Assay: primary ELISA, signal ratio to HSA
RESULT TYPE: hCD71:HSA

The cases that follow already have their hCD71:HSA on record.
BINDER	RESULT TYPE	RESULT NUMBER
CD71-binding FN3 domain of SEQ ID NO: 206 (designed binder) MSLPAPKNLVASRVTEDSARLSWTAPDAAFDSFEIGYFENLYLGEAIVLTVPGSERSYDLTGLKPGTEYWVQIGGVKGGNWSAPLSAIFTT	hCD71:HSA	49
CD71-binding FN3 domain of SEQ ID NO: 182 (designed binder) MSLPAPENLVVSRVTEDSARLSWTAPDAAFDSFEIGYWENAYKGEAIVLTVPGSERSYDLTGLKPGTEYVVFIGGVKGGVWSVPLSVIFTT	hCD71:HSA	101
CD71-binding FN3 domain of SEQ ID NO: 165 (designed binder) MSLPAPKNLVVSRVTEDSARLSWTAPDAAFDSFYIAYAEPRPDGEAILLEVPGSERSYDLAGLKPGTEYSVLIHGVKGGLLSSPLGAEFTT	hCD71:HSA	305
CD71-binding FN3 domain of SEQ ID NO: 209 (designed binder) MSLPAPKNLVVSRVTEDSARLSWTAPDAAFDSFEIAYFERTWFGEAIVLTVPGSERSYDLTGLKPGTEYWVQIGGVKGGDWSRPLSAIFTT	hCD71:HSA	356
CD71-binding FN3 domain of SEQ ID NO: 120 (designed binder) MSLPAPKNLVVSRVTEDSARLSWTAPDAAFDSFEIAYQELSLWGEAIVLTVPGSERSYDLTGLKPGTEYWVQIGGVKGGEWSAPLSAIFTT	hCD71:HSA	443
CD71-binding FN3 domain of SEQ ID NO: 190 (designed binder) MSLPAPKNLVISRVTEDSARLSWTAPDAAFDSFEIGYFENLYLGEAIVLTVPGSERSYDLTGLKPGTEYWVQIGGVKGGNWSAPLSAISTT	hCD71:HSA	48

A = CD71-binding FN3 domain of SEQ ID NO: 156 (designed binder) MSLPAPKNLVVSRVTEDSARLSWTAPDAAFDSFEIGYFEMSWTGEAIVLTVPGSERSYDLTGLKPGTEYVVFIGGVKGGNWSAPLSAIFTT
B = CD71-binding FN3 domain of SEQ ID NO: 144 (designed binder) MSLPAPKNLVVSRVTEDSARLSWTAPDAAFDSFEIGYFENLYLGEAIVLTVPGSERSYDLTSLKPGTEYWVQIGGVKGGNWSAPLSATFTT
Identify the entry with the smaller hCD71:HSA: A or B . Reply briefly: the label of your chosen item.
A

A = CD71-binding FN3 domain of SEQ ID NO: 184 (designed binder) MSLPAPKNLVVSRVTEDSARPSWTAPDAAFDSFEIAYFERTWFGEAIVLTVPGSERSYDLTGLKPGTEYWVQIGGVKGGDWSKPLSAIFTT
B = CD71-binding FN3 domain of SEQ ID NO: 159 (designed binder) MSLPAPKNLVVSRVTEDSARLSWTAPDAAFDSFEIVYQENSAYGEAIVLTVPGSERSYDLTGLKPGTEYWVQIGGVKGGNWSAPLSAISTT
Hi there, can you help? I need to know whether A or B has lower measured hCD71:HSA. Answer by quoting the chosen item's label.
B
(B: 40, A: 74)

A = CD71-binding FN3 domain of SEQ ID NO: 149 (designed binder) MSLPAPKNLVVSRVTEDSARLSWTAPDAAFDSFDIGYFELRYYGEAIVLTVPGSERSYDLTGLKPGTEYWVSIGGVKGGTYSAPLSAIFTT
B = CD71-binding FN3 domain of SEQ ID NO: 216 (designed binder) MSLPAPKNLVVSRVTEDSARLSWTAPDAAFDSFEIAYFEQTYTGEAIVLTVPGSERSYDLTGLKPGTEYWVQIGGVKGGTWSAPLSAISTT
Lab log: flag the item ( A or B ) with the smaller hCD71:HSA figure. Answer format: the label of the selected item.
B
(B: 80, A: 342)
